- SUBJECT OF TEST: Serine/threonine-protein kinase PLK2 (Homo sapiens, UniProt Q9NYY3)
- Sequence (Q9NYY3 whole entry): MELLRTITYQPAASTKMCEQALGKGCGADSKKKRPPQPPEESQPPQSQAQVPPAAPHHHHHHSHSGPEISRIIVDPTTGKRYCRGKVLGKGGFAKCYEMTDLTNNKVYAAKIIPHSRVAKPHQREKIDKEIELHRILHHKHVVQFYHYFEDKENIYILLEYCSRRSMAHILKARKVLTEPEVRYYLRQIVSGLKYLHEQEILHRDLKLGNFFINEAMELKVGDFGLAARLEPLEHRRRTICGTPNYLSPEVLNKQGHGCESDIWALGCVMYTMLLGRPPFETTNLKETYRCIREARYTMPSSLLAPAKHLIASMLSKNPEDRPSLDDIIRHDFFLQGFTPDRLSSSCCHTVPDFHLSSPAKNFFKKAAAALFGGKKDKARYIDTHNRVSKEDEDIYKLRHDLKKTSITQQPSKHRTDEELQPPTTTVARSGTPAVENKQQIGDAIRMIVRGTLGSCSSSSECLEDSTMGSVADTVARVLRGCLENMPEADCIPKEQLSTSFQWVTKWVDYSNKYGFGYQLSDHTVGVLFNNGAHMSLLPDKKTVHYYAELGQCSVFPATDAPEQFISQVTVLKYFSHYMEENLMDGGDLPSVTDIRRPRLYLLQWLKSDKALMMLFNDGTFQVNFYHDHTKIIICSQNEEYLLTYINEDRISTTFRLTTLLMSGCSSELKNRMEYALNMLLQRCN
- EXPERIMENT NOTES: Inhibition of recombinant full length human GST-tagged PLK2 expressed in baculovirus expression system using ser/thr 16 as substrate incubated for 1 hr by Z'-LYTE assay
REPORTED METRIC: IC50 (nM)
Give bare numbers, in nM.

Consider the following illustrative entries.
- SMILES STRUCTURE: "CC[C@@H]1C(=O)N(C)c2cnc(Nc3cc(F)c(C(=O)NC4CCOCC4)cc3OCCO)nc2N1C(C)C"
  SUBJECT OF TEST: "Serine/threonine-protein kinase PLK2 (Homo sapiens, UniProt Q9NYY3)"
  READOUT UNIT: "nM"
  READING: 869
- SMILES STRUCTURE: "CC[C@@H]1C(=O)N(C)c2cnc(Nc3ccc(C(=O)NC4CCCC4)cc3CCO)nc2N1C1CCCC1"
  SUBJECT OF TEST: "Serine/threonine-protein kinase PLK2 (Homo sapiens, UniProt Q9NYY3)"
  READOUT UNIT: "nM"
  READING: 36
- SMILES STRUCTURE: "CC[C@@H]1C(=O)N(C)c2cnc(Nc3ccc(C(=O)NC4CCCC4)cc3OC)nc2N1C1CCCC1"
  SUBJECT OF TEST: "Serine/threonine-protein kinase PLK2 (Homo sapiens, UniProt Q9NYY3)"
  READOUT UNIT: "nM"
  READING: 3.98

Field: IC50. Fill in for each record below.
1. CCCNC(=O)c1ccc(Nc2ncc3c(n2)N(C2CCCC2)[C@H](CC)C(=O)N3C)c(OCCO)c1
2. CC[C@@H]1C(=O)N(C)c2cnc(Nc3ccc(C(=O)NCCN(C)C)cc3OCCO)nc2N1C1CCCC1
3. CC[C@@H]1C(=O)N(C)c2cnc(Nc3ccc(C(=O)NC4CCCC4)cc3OCCO)nc2N1C1CCCC1
4. CC[C@@H]1C(=O)N(C)c2cnc(Nc3ccc(C(=O)NC4CCCC4)cc3O)nc2N1C1CCCC1

[626, 265, 152, 7.98]

Field: IC50. Fill in for each record below.
1. CCCCNC(=O)c1ccc(Nc2ncc3c(n2)N(C2CCCC2)[C@H](CC)C(=O)N3C)c(OCCO)c1
2. CC[C@@H]1C(=O)N(C)c2cnc(Nc3ccc(C(=O)NC4CCCC4)cc3OCc3ccccc3)nc2N1C1CCCC1
3. CC[C@@H]1C(=O)N(C)c2cnc(Nc3cc(F)c(C(=O)NC4CCOCC4)cc3OCCO)nc2N1C1CCCC1
4. CC[C@@H]1C(=O)N(C)c2cnc(Nc3ccc(C(=O)NC4CCCC4)cc3C)nc2N1C1CCCC1
5. CC[C@@H]1C(=O)N(C)c2cnc(Nc3ccc(C(N)=O)cc3OCCO)nc2N1C1CCCC1
6. CC[C@@H]1C(=O)N(C)c2cnc(Nc3cc(F)c(C(=O)NCCN4CCN(C)CC4)cc3OCCO)nc2N1C1CCCC1

498
1800
61.2
4.72
290
167

Field: IC50. Fill in for each record below.
1. CCNC(=O)c1cc(OCCO)c(Nc2ncc3c(n2)N(C2CCCC2)[C@H](CC)C(=O)N3C)cc1F
2. CC[C@@H]1C(=O)N(C)c2cnc(Nc3ccc(C(C)=O)cc3OCCO)nc2N1C1CCCC1

[107, 132]
